# assayed_system: human plasma kallikrein (Homo sapiens, UniProt P03952)
# Sequence (P03952 391-638 limits assumed): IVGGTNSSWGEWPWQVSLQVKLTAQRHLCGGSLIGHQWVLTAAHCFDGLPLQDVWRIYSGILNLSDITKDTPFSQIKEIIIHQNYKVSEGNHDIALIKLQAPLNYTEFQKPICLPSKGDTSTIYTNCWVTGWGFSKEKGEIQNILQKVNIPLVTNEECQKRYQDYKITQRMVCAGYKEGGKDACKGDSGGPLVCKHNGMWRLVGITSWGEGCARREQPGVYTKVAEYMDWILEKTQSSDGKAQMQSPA
# Sequence (P03952 20-390 partner limits assumed): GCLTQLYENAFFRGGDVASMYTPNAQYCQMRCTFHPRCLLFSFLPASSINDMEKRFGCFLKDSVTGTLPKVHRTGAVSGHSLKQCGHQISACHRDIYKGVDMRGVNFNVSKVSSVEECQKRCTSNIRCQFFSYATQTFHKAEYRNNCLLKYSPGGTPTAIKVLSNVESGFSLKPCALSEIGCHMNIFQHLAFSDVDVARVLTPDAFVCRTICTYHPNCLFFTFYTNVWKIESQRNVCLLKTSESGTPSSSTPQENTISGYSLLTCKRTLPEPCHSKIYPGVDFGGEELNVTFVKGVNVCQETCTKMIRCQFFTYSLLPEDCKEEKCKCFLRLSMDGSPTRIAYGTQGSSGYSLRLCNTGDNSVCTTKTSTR
# experiment_notes: Determination of the plasma kallikrein activity (fluorogenic peptide substrate)
# details: plasma kallikrein from Kordia 0.6 nM; substrate H-Pro-Phe-Arg-AMC; 30 min at 22° C.
pIC50: −log10 of the molar value.
Decide by pIC50: equal to or exceeding 8 means yes (1), less means no (0).

- molecule: "COc1cn(C(CCOC(C)(C)C)C(=O)Nc2ccc(C(=O)O)cc2)c(=O)cc1-c1cc(Cl)ccc1C#N (racemic)"
  cat: "yes (1)"

// query Does pIC50 meet or surpass 8 for COc1cn(C(CCOC(C)(C)C)C(=O)Nc2ccc(C(=O)O)cc2)c(=O)cc1-c1cc(Cl)ccc1OC(F)F (racemic) ?
// result no (0)

// query Does pIC50 meet or surpass 8 for COc1cn([C@@H](CCOC2(C)CCC2)C(=O)Nc2ccc(C(=O)O)cc2)c(=O)cc1-c1cc(Cl)ccc1OC(F)F (single isomer, unassigned; enantiomer 2) ?
// result no (0)

// query Does pIC50 meet or surpass 8 for COc1cn(C(CCOC(C)C)C(=O)Nc2ccc(C(=O)O)cc2)c(=O)cc1-c1cc(Cl)ccc1C#N (racemic) ?
// result yes (1)

// query Does pIC50 meet or surpass 8 for COc1cn([C@@H](CCOC(C)(C)C)C(=O)Nc2ccc(C(=O)O)cc2)c(=O)cc1-c1cc(Cl)ccc1OC(F)F (single isomer, unassigned; enantiomer 2) ?
// result no (0)

Values from patent US20190119213A1
